src = paper PMC9416004

Below, each entry is listed with its recorded Cytotoxicity MCC (minimal cytotoxic concentration).
Tested on: human embryonic lung (HEL) fibroblast cells
Conditions: mock-infected HEL cells; microscopically visible alterations in cell morphology

Reference set, count: 2
{"columns": ["compound", "measuredValue"],
 "data": [
  ["COC(=O)C[C@H](NC(=O)OC(C)(C)C)C(=O)N(Cc1ccc(F)cc1)C1(C(=O)NCc2ccccc2)CC[N+](C)(Cc2ccccc2)CC1 (stereo partly shown)", ">100 µM"],
  ["COC(=O)CC[C@H](NC(=O)OC(C)(C)C)C(=O)N(Cc1ccc(F)cc1)C1(C(=O)NCc2ccccc2)CCN(Cc2ccccc2)CC1", "100 µM"]
]}

Look up Cytotoxicity MCC (minimal cytotoxic concentration): CC(C)(C)OC(=O)NC(Cc1ccccc1)C(=O)N(Cc1ccccc1)C1(C(=O)NCc2ccccc2)CCN(Cc2ccc(Cl)cc2)CC1 (stereo not shown) >100 µM

Now consider N#C[C@@]1(c2ccc3c(N)ncnn23)O[C@H](CO)[C@@H](O)[C@H]1O [GS-441524, reference compound] and answer again. >100 µM

Now consider `COC(=O)C[C@H](NC(=O)OC(C)(C)C)C(=O)N(Cc1ccc(F)cc1)C1(C(=O)NC2CCCCC2)CCN(Cc2ccccc2)CC1` and answer again. >100 µM

Now consider O=C(N/C(=C\c1ccccc1)C(=O)N1CCC(O)(c2ccc(Br)cc2)CC1)c1ccccc1 [Compound K22, reference compound] and answer again. 50 µM

Now consider `COC(=O)C[C@H](NC(=O)OC(C)(C)C)C(=O)N(Cc1ccc(F)cc1)C1(C(=O)NCc2ccccc2)CCN(C2CCCCC2)CC1` and answer again. 100 µM

---

Below, each entry is listed with its recorded EC50.
Test system: HCoV-229E
Assay: Cytopathic effect (CPE) reduction assay with HCoV-229E in HEL cells
Format: cell-based, human coronavirus 229E
Settings: Human coronavirus 229E, 120 h; HCoV-229E-infected HEL cells; protection against virus-induced CPE by microscopic scoring; five days at 35 °C; read-out: Antiviral EC50 Microscopy
A number alone suffices; assume µM.

{"columns": ["compound", "EC50 [µM]"],
 "data": [
  ["COC(=O)C[C@H](NC(=O)OC(C)(C)C)C(=O)N(Cc1ccccc1)C1(C(=O)NC(C)(C)C)CCN(Cc2ccccc2)CC1", 25],
  ["CC(C)(C)OC(=O)NC(Cc1ccccc1)C(=O)N(Cc1ccccc1)C1(C(=O)NCc2ccccc2)CCN(Cc2ccc(Cl)cc2)CC1 (stereo not shown)", 36],
  ["COC(=O)C[C@H](NC(=O)OC(C)(C)C)C(=O)N(C)C1(C(=O)NCc2ccccc2)CCN(Cc2ccccc2)CC1", 14]
]}

Provide value of EC50 for this record tested with HCoV-229E: `COC(=O)C[C@H](NC(=O)OC(C)(C)C)C(=O)N(Cc1ccc(F)cc1)C1(C(=O)NCc2ccccc2)CCN(CCc2ccccc2)CC1` 3.2

Now consider Cc1ccc(CC(NC(=O)OC(C)(C)C)C(=O)N(Cc2ccccc2)C2(C(=O)NCc3ccccc3)CCN(Cc3ccccc3)CC2)cc1 (stereo not shown) and answer again. 6.6

Now consider `COC(=O)C[C@H](NC(=O)OC(C)(C)C)C(=O)N(Cc1ccc(F)cc1)C1(C(=O)NCc2ccccc2)CCNCC1` and answer again. 50

---

Tested on: HCoV-229E
Experiment: Cytopathic effect (CPE) reduction assay with HCoV-229E in HEL cells
Assay type: cell-based, human coronavirus 229E
Details: Human coronavirus 229E, 120 h; HCoV-229E-infected HEL cells; protection against virus-induced CPE by microscopic scoring; five days at 35 °C; read-out: Antiviral EC50 Microscopy
Below, each entry is listed with its recorded EC50.
A number alone suffices; assume µM.

{"columns": ["compound", "EC50 / µM"],
 "data": [
  ["CC(C)(C)OC(=O)NC(Cc1ccccc1)C(=O)N(Cc1ccccc1)C1(C(=O)NCc2ccccc2)CCN(Cc2ccc(F)cc2)CC1 (stereo not drawn) [Compound 60]", 4.5]
]}

Look up EC50: COC(=O)C[C@H](NC(=O)OC(C)(C)C)C(=O)N(Cc1ccc(Cl)cc1)C1(C(=O)NCc2ccccc2)CCN(Cc2ccccc2)CC1 [Compound 25] 3.1

Now consider COC(=O)CNC(=O)C1(N(Cc2ccccc2)C(=O)[C@H](CC(=O)OC)NC(=O)OC(C)(C)C)CCN(Cc2ccccc2)CC1 [Compound 17] and answer again. 68
